Recorded values, source ChEMBL document CHEMBL3856258.

# MEASUREMENT DESCRIPTION: Cytotoxicity against CHL cells assessed as growth rate at 33.8 ug/ml preincubated for 6 hrs followed by 18 hrs incubation in fresh medium in absence of S9 fraction by MTT assay relative to control
# Type: toxicity, cell-based, Cricetulus griseus
# MEASUREMENT PARAMETERS: chinese hamster, read-out: Activity

COMPOUND: COP(=O)(CCC(N)C(=O)O)Oc1cccc(CC(=O)O)c1 (stereo unspecified)
MEASUREMENT UNIT: %
viability at 18 h, 33.8 ug/ml: 103

====

# MEASUREMENT DESCRIPTION: Cytotoxicity against CHL cells assessed as growth rate at 3300 ug/ml preincubated for 6 hrs followed by 18 hrs incubation in fresh medium in absence of S9 fraction by MTT assay relative to control
# Type: toxicity, cell-based, Cricetulus griseus
# MEASUREMENT PARAMETERS: chinese hamster, read-out: Activity
ASSAY READOUT: viability at 18 h, 3300 ug/ml (%)

COMPOUND: COP(=O)(CCC(N)C(=O)O)Oc1cccc(CC(=O)O)c1 (stereo unspecified)
ASSAY READOUT: viability at 18 h, 3300 ug/ml
MEASUREMENT UNIT: %
NUMERIC VALUE: 97.1

====

# MEASUREMENT DESCRIPTION: Cytotoxicity against CHL cells assessed as growth rate at 3300 ug/ml preincubated for 6 hrs followed by 18 hrs incubation in fresh medium in presence of S9 fraction by MTT assay relative to control
# Type: toxicity, cell-based, Cricetulus griseus
# MEASUREMENT PARAMETERS: chinese hamster, read-out: Activity

COMPOUND: COP(=O)(CCC(N)C(=O)O)Oc1cccc(CC(=O)O)c1 (stereo unspecified)
MEASUREMENT UNIT: %
viability at 18 h, 3300 ug/ml: 96.8

====

# MEASUREMENT DESCRIPTION: Cytotoxicity against CHL cells assessed as growth rate at 1320 ug/ml preincubated for 6 hrs followed by 18 hrs incubation in fresh medium in presence of S9 fraction by MTT assay relative to control
# Assay type: toxicity, cell-based, Cricetulus griseus
# MEASUREMENT PARAMETERS: chinese hamster, read-out: Activity
ASSAY READOUT: viability at 18 h, 1320 ug/ml (%)

COMPOUND: COP(=O)(CCC(N)C(=O)O)Oc1cccc(CC(=O)O)c1 (stereo unspecified)
ASSAY READOUT: viability at 18 h, 1320 ug/ml
NUMERIC VALUE: 95.7

====

# MEASUREMENT DESCRIPTION: Cytotoxicity against CHL cells assessed as growth rate at 2.16 ug/ml preincubated for 6 hrs followed by 18 hrs incubation in fresh medium in absence of S9 fraction by MTT assay relative to control
# Type: toxicity, cell-based, Cricetulus griseus
# MEASUREMENT PARAMETERS: chinese hamster, read-out: Activity
ASSAY READOUT: viability at 18 h, 2.16 ug/ml

COMPOUND: COP(=O)(CCC(N)C(=O)O)Oc1cccc(CC(=O)O)c1 (stereo unspecified)
RESULT: 103%

====

# MEASUREMENT DESCRIPTION: Cytotoxicity against CHL cells assessed as growth rate at 211 ug/ml after 24 hrs in absence of S9 fraction by MTT assay relative to control
# Assay type: toxicity, cell-based, Cricetulus griseus
# MEASUREMENT PARAMETERS: chinese hamster, read-out: Activity

COMPOUND: COP(=O)(CCC(N)C(=O)O)Oc1cccc(CC(=O)O)c1 (stereo unspecified)
viability at 24 h, 211 ug/ml (%): 98.2
